EXPERIMENT NOTES: Stability of AsA-APPA in pH 7 buffer at 50° C. (residual ratio by UV absorbance)
Assay type: physicochemical
TEST CONTEXT: ph 7 buffer; 24 hr., pH 7, 50 μM, 50° C.
Protocol: L-Ascorbic acid and AsA-APPA produced in Preparation Ex. 2 were dissolved in buffer solutions of pH 7 to concentrations of 50 μM, respectively, and then maintained in a thermostat of 50° C. At constant intervals, UV absorbances were measured at 259 nm for AsA-APPA and at 266 nm for L-ascorbic acid, to evaluate the stabilities of the test samples as residual ratio(%).
READOUT LABEL: remaining at 24 h, 50 µM (%)
One number for each entry, in %.

The molecule identified as NCCCOP(=O)(O)OC1=C(O)[C@@H]([C@@H](O)CO)OC1=O registered its remaining at 24 h, 50 µM at 99.1

====

EXPERIMENT NOTES: Stability of AsA-APPA in pH 7 buffer at 50° C. (residual ratio by UV absorbance)
Assay type: physicochemical
TEST CONTEXT: ph 7 buffer; 6 hr., pH 7, 50 μM, 50° C.
READOUT LABEL: remaining at 6 h, 50 µM
# answer = value followed by unit

The compound listed as NCCCOP(=O)(O)OC1=C(O)[C@@H]([C@@H](O)CO)OC1=O shows remaining at 6 h, 50 µM equal to 100%

====

EXPERIMENT NOTES: Acute Dermal Toxicity Test
Type: in vivo, ICR mice
TEST CONTEXT: mouse, in vivo, topical or ocular, acute dermal, ICR mice, Litchfield-Wilcoxon's method; read-out: LD50 (lethal dose)
READOUT LABEL: LD50 at 336 h (mg/kg)
Numbers only, in mg/kg.

Item: NCCCOP(=O)(O)OC1=C(O)[C@@H]([C@@H](O)CO)OC1=O [AsA-APPA] | LD50 at 336 h: 2000

====

EXPERIMENT NOTES: Stability of AsA-APPA in pH 7 buffer at 50° C. (residual ratio by UV absorbance)
Assay type: physicochemical
TEST CONTEXT: ph 7 buffer; 3 hr., pH 7, 50 μM, 50° C.
READOUT LABEL: remaining at 3 h, 50 µM (%)
Answers are plain numbers, in %.

Just so you know, measured remaining at 3 h, 50 µM for NCCCOP(=O)(O)OC1=C(O)[C@@H]([C@@H](O)CO)OC1=O came out at 100

====

EXPERIMENT NOTES: Stability of AsA-APPA in pH 7 buffer at 50° C. (residual ratio by UV absorbance)
Assay type: physicochemical
TEST CONTEXT: ph 7 buffer; 30 min., pH 7, 50 μM, 50° C.
READOUT LABEL: remaining at 0.5 h, 50 µM (%)
Answers are plain numbers, in %.

Record NCCCOP(=O)(O)OC1=C(O)[C@@H]([C@@H](O)CO)OC1=O , field remaining at 0.5 h, 50 µM: 100

====

EXPERIMENT NOTES: Stability of AsA-APPA in pH 7 buffer at 50° C. (residual ratio by UV absorbance)
Assay type: physicochemical
TEST CONTEXT: ph 7 buffer; 1 hr., pH 7, 50 μM, 50° C.
READOUT LABEL: remaining at 1 h, 50 µM
Answer with the number, then the unit.

NCCCOP(=O)(O)OC1=C(O)[C@@H]([C@@H](O)CO)OC1=O yielded remaining at 1 h, 50 µM of 100%
